system: EKVX NSCLC; assay: NCI tumour cell line growth inhibition, 48 h
MEASURED_ATTRIBUTE: TGI

COMPOUND | TARGET_SYSTEM | TGI
COc1cc(C)c(CC/C(C)=C/Cc2cc(O)ccc2O)c(C)c1C | EKVX NSCLC | > 25 µM

Q. Item O=C(/C=C/C12c3ccccc3C(c3ccccc31)C1C(=O)NC(=O)C12)c1ccccn1 (configuration not stated) with EKVX NSCLC - TGI?
A. 4.93 µM

Q. Item O=C(/C=C/c1ccc(Cl)cc1)Oc1ccc(C=C2CCC/C(=C\c3ccc(OC(=O)/C=C/c4ccc(Cl)cc4)cc3)C2=O)cc1 with EKVX NSCLC - TGI?
A. > 100 µM

Q. Item OCc1ccc2c(c1)CC1(C2)Cc2cc3c(cc2C1O)CCC3 (configuration not stated) with EKVX NSCLC - TGI?
A. 40.1 µM
